ΔG° values, listed per item
# Tested target: human serum albumin (HSA) (Homo sapiens, UniProt P02768)
# Construct: three analogous domains (I, II, and III) having amino acid residues of 1–195, 196–383, and 384–585
# Sequence (P02768 25-609): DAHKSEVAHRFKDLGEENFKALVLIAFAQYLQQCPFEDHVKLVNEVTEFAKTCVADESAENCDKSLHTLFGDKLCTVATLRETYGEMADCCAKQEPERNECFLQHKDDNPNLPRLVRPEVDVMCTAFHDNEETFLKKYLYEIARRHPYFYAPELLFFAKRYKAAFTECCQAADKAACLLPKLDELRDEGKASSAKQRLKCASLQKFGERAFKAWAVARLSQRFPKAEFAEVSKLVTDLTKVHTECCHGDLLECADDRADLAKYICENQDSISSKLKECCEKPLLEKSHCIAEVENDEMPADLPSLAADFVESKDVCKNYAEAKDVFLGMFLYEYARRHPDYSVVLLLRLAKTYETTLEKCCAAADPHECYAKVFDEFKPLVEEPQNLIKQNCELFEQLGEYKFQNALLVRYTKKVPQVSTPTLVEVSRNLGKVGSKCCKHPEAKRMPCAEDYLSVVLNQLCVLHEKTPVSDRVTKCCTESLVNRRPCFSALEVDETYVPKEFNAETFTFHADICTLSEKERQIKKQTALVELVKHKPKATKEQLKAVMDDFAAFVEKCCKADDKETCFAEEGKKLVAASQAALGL
# Protocol notes: Steady-state fluorescence quenching of HSA
# Type: binding
# Condition set: 303 K

Below: 3 compounds and their reported ΔG°.
Cc1ccc(Nc2n[n+](-c3ccccc3)c(/C=C/c3ccccc3)s2)cc1.[Cl-] : -6.76 kcal/mol
Brc1ccc(Nc2n[n+](-c3ccccc3)c(/C=C/c3ccccc3)s2)cc1.[Cl-] : -6.86 kcal/mol
COc1ccc(Nc2n[n+](-c3ccccc3)c(/C=C/c3ccccc3)s2)cc1.[Cl-] : -6.84 kcal/mol

Pending compound:
Q: Please list ΔG° recorded for the compound Clc1ccc(Nc2n[n+](-c3ccccc3)c(/C=C/c3ccccc3)s2)cc1.[Cl-]
A: -6.91 kcal/mol

----------
# Tested target: human serum albumin (HSA) (Homo sapiens, UniProt P02768)
# Construct: three analogous domains (I, II, and III) having amino acid residues of 1–195, 196–383, and 384–585
# Protocol notes: Steady-state fluorescence quenching of HSA
# Assay type: binding
# Condition set: 310 K
Readout name: kq (bimolecular quenching rate constant) (M⁻¹ s⁻¹)
Dear colleague, please return just the value in M⁻¹ s⁻¹, with no unit written.

Brc1ccc(Nc2n[n+](-c3ccccc3)c(/C=C/c3ccccc3)s2)cc1.[Cl-] [5d] : 2.89e+13

Q: Please list kq (bimolecular quenching rate constant) recorded for the compound COc1ccc(Nc2n[n+](-c3ccccc3)c(/C=C/c3ccccc3)s2)cc1.[Cl-] [5b]
A: 2.07e+13

Q: Please list kq (bimolecular quenching rate constant) recorded for the compound Cc1ccc(Nc2n[n+](-c3ccccc3)c(/C=C/c3ccccc3)s2)cc1.[Cl-] [5a]
A: 2.18e+13

Q: Please list kq (bimolecular quenching rate constant) recorded for the compound Clc1ccc(Nc2n[n+](-c3ccccc3)c(/C=C/c3ccccc3)s2)cc1.[Cl-] [5c]
A: 2.53e+13

----------
τ2 (HSA fluorescence lifetime) values, listed per item
# Tested target: human serum albumin (HSA) (Homo sapiens, UniProt P02768)
# Construct: three analogous domains (I, II, and III) having amino acid residues of 1–195, 196–383, and 384–585
# Protocol notes: Time-resolved fluorescence decay of HSA
# Format: binding
# Condition set: HSA 1.00 × 10^−5 M with 1.32 × 10^−5 M compound, ca 298 K
Dear colleague, please return just the value in ns, with no unit written.

Clc1ccc(Nc2n[n+](-c3ccccc3)c(/C=C/c3ccccc3)s2)cc1.[Cl-] [5c] : 5.66
Brc1ccc(Nc2n[n+](-c3ccccc3)c(/C=C/c3ccccc3)s2)cc1.[Cl-] [5d] : 5.37
Cc1ccc(Nc2n[n+](-c3ccccc3)c(/C=C/c3ccccc3)s2)cc1.[Cl-] [5a] : 5.38

Q: Please list τ2 (HSA fluorescence lifetime) recorded for the compound COc1ccc(Nc2n[n+](-c3ccccc3)c(/C=C/c3ccccc3)s2)cc1.[Cl-] [5b]
A: 5.25

----------
# Tested target: human serum albumin (HSA) (Homo sapiens, UniProt P02768)
# Construct: three analogous domains (I, II, and III) having amino acid residues of 1–195, 196–383, and 384–585
# Protocol notes: Time-resolved fluorescence decay of HSA
# Assay type: binding
# Condition set: HSA 1.00 × 10^−5 M with 1.32 × 10^−5 M compound, ca 298 K
Readout name: Relative % of τ2 (%)
Dear colleague, please return just the value in %, with no unit written.

Below: 3 compounds and their reported Relative % of τ2.
COc1ccc(Nc2n[n+](-c3ccccc3)c(/C=C/c3ccccc3)s2)cc1.[Cl-] : 76.1
Brc1ccc(Nc2n[n+](-c3ccccc3)c(/C=C/c3ccccc3)s2)cc1.[Cl-] : 70.2
Clc1ccc(Nc2n[n+](-c3ccccc3)c(/C=C/c3ccccc3)s2)cc1.[Cl-] : 67.0

Pending compound:
Q: Determine reported Relative % of τ2 for Cc1ccc(Nc2n[n+](-c3ccccc3)c(/C=C/c3ccccc3)s2)cc1.[Cl-] ; test system: human serum albumin (HSA) (Homo sapiens, UniProt P02768).
A: 73.6
